test.system: CK1δ (Homo sapiens (Human), UniProt P48730)
Sequence (P48730 whole entry): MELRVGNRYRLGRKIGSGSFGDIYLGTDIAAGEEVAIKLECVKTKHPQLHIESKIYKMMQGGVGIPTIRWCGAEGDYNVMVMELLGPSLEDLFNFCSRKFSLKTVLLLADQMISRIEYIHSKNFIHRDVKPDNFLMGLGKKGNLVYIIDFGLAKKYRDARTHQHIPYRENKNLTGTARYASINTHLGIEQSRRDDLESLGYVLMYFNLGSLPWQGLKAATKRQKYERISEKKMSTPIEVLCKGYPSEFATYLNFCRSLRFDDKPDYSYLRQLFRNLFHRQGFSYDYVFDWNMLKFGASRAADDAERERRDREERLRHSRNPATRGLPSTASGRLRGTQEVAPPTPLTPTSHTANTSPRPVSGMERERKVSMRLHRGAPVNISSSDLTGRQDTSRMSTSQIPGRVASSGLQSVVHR
Kindly apply the following: Criterion met if IC50 is less than 800 pM, Criterion not met in every other case.

Below are worked cases with known answers.
item_smiles=O=C(Nc1cn2nc(-c3c(-c4ccc(F)cc4)nc4ccccn34)ccc2n1)c1ccncc1 test_system="CK1δ (Homo sapiens (Human), UniProt P48730)" assigned_class="Criterion not met"
item_smiles=Cc1nc(-c2ccc(F)cc2)c(-c2ccc3nc(NC(=O)c4cc(-c5ccc(F)cc5)ncn4)cn3n2)n1C test_system="CK1δ (Homo sapiens (Human), UniProt P48730)" assigned_class="Criterion not met"
item_smiles=CC(C)COC(=O)N1CCC(n2cnc(-c3ccc(F)cc3)c2-c2ccc3nc(NC(=O)c4ccnc(F)c4)cn3n2)CC1 test_system="CK1δ (Homo sapiens (Human), UniProt P48730)" assigned_class="Criterion met"
item_smiles=Cc1nc(-c2ccc(F)cc2)c(-c2ccc3nc(NC(=O)c4cccc5ncccc45)cn3n2)n1C test_system="CK1δ (Homo sapiens (Human), UniProt P48730)" assigned_class="Criterion met"

// switching to the query molecule
Task item: Is IC50 of Cc1cc(C(=O)Nc2cn3nc(-c4c(-c5ccc(F)cc5)nc5ccccn45)ccc3n2)on1 strictly below 800 pM?
Reply: Criterion met

* * *

test.system: CK1ε (Homo sapiens (Human))
Sequence (P49674 whole entry): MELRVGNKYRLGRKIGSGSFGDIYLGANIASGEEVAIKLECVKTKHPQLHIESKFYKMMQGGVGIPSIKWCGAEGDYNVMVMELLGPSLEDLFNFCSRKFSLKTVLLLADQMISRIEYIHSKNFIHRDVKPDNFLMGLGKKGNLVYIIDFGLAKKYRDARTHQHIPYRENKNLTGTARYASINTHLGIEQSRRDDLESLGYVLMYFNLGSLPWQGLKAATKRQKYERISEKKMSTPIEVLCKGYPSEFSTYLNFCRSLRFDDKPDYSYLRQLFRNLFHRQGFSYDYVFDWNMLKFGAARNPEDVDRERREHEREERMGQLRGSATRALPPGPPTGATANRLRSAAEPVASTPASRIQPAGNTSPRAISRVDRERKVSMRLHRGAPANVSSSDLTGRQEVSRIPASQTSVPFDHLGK
measure.name: IC50
Show the value, then the unit it is measured in.

molecule="Cc1nc(-c2ccc(F)cc2)c(-c2ccc3nc(NC(=O)c4cncs4)cn3n2)n1C [Compound 396]" experimental_result="4.41 nM"
molecule="O=C(Nc1cn2nc(-c3c(-c4ccc(F)cc4)nc(C4CC4)n3C3CCNCC3)ccc2n1)c1cccc(-c2cccnc2)c1 [Compound 135]" experimental_result="2.6 nM"
molecule="Cc1nc(-c2ccc(Cl)cc2)c(-c2ccc3nc(NC(=O)c4ccnc(F)c4)cn3n2)n1CC(F)(F)F [Compound 295]" experimental_result="5.95 nM"
molecule="O=C(Nc1cn2nc(-c3c(-c4ccc(F)cc4)ncn3C3CCN(Cc4c[nH]cn4)CC3)ccc2n1)c1ccnc(F)c1 [Compound 22]" experimental_result="1.29 nM"
molecule="CC(C)c1nc(-c2ccc(F)cc2)c(-c2ccc3nc(NC(=O)c4ccnc(F)c4)cn3n2)n1CC(F)F [Compound 287]" experimental_result="9.17 nM"

Please report IC50 for every entry that follows.
1. O=C(Nc1cn2nc(-c3c(-c4ccc(F)cc4)ncn3C3CCN(C(=O)c4ccno4)CC3)ccc2n1)c1ccnc(F)c1 [Compound 48]
2. Cc1nc(-c2ccc(F)cc2)c(-c2ccc3nc(NC(=O)c4sc(-c5ccncc5)nc4C(F)(F)F)cn3n2)n1C [Compound 405]

Reply:
1. 1.45 nM
2. 4.21 nM

* * *

test.system: UniProtKB P49674
Provide the recorded pIC50 for the entries that follow.
Numbers only, as −log10 of the molar value.

Worked examples, 3 molecules total:
molecule="O=C(CO)Nc1cn2nc(-c3c(-c4ccc(F)cc4)ncn3CCN3CCOCC3)ccc2n1 [Compound 165]" experimental_result=7.27
molecule="CCn1c(C)nc(-c2ccc(Cl)cc2)c1-c1ccc2nc(NC(=O)c3ccnc(F)c3)cn2n1 [Compound 292]" experimental_result=8.74
molecule="O=C(Nc1cn2nc(-c3c(-c4ccc(F)cc4)nc4ccccn34)ccc2n1)c1ccnc(C(F)(F)F)c1 [Compound 198]" experimental_result=7.46

I have 4 molecules here; please give me pIC50 for each one.
1. CS(=O)(=O)N1CCn2c(nc(-c3ccc(F)cc3)c2-c2ccc3nc(NC(=O)c4ccnc(F)c4)cn3n2)C1 [Compound 476]
2. O=C(Nc1cn2nc(-c3c(-c4ccc(F)cc4)ncn3C3CCN(C(=O)c4cscn4)CC3)ccc2n1)c1ccnc(F)c1 [Compound 44]
3. O=C(Nc1cn2nc(-c3c(-c4ccc(F)cc4)nc4ccccn34)ccc2n1)c1ccccc1 [Compound 191]
4. Cc1nc(-c2cccnc2)sc1C(=O)Nc1cn2nc(-c3c(-c4ccc(F)cc4)ncn3C3CN(C(=O)CN)C3)ccc2n1 [Compound 156]

Reply:
1. 8.60
2. 8.91
3. 8.52
4. 9.01
